Molecular target: Serine/threonine-protein kinase 4 (Homo sapiens) (UniProt Q13043);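 further: mean inhibition of MST1, reported as part of the GSK PKIS dataset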
Sequence (whole entry): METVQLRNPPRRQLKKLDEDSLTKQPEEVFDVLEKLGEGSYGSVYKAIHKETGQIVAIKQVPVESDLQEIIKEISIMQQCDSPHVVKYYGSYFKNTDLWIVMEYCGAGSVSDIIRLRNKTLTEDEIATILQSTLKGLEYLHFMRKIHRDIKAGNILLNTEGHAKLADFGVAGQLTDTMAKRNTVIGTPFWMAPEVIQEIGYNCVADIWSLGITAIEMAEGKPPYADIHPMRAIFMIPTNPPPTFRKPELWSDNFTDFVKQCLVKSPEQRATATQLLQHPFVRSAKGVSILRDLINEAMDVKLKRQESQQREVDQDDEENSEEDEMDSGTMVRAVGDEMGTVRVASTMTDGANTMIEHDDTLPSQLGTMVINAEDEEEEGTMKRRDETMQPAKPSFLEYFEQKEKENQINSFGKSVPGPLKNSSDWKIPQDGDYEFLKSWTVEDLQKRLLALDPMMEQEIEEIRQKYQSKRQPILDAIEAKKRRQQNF
Settings: at 0.1 µM
Everything with inhibition lower than 4% is F; everything else, including exactly 4%, is T.

>>> df
                      smiles_representation  group
0  O=C(O[C@H]1CN[C@H](C#Cc2cc3ncnc(Nc4ccc(OCc5cccc(F)c5)c(Cl)c4)c3s2)C1)N1CCOCC1      T
1  COC(=O)Nc1nc2cc(Oc3ccc(NC(=O)Nc4ccccc4)cc3)ccc2[nH]1      F
2  Cc1cc(O)cc(C)c1/C=C/c1cncc(C(=O)OC(C)(C)C)c1      F
3  O=C(O[C@H]1CN[C@H](C#Cc2cc3ncnc(Nc4ccc5c(cnn5Cc5ccccc5)c4)c3s2)C1)N1CCOCC1      F
4    CCn1c(-c2nonc2N)nc2cncc(C(=O)NCCNC)c21      F
5  COc1cc(N2CCN(C(C)C)CC2)ccc1Nc1nc(Nc2cccc(F)c2C(=O)O)c2cc[nH]c2n1      T
6  Cc1c2ccc(N(C)c3ccnc(Nc4cccc(S(N)(=O)=O)c4)n3)cc2nn1C      T
7  CN(C)CCNC(=O)Nc1ccc(N(C)c2ccnc(Nc3ccc(CS(C)(=O)=O)cc3)n2)cc1      T
